# System: A549
# Protocol: In vitro cytotoxicity against Lung A-549 human tumors following a 6 day exposure.
# Type: functional
# Condition notes: A549, 144 h, read-out: ED50 (the source's name)
Property label: EC50

> print(dat)
                                test.smiles  result
1  COc1cccc2c1C(=O)c1c(O)c3c(c(O)c1C2=O)C[C@@](O)(C(=O)CO)C[C@@H]3O[C@H]1C[C@H](N)[C@H](O)[C@H](C)O1  6.2 nM
